Listing of recorded TGI by entry.
tested on: HCT-116 colon; assay: NCI tumour cell line growth inhibition, 48 h

Recorded results for 3 molecules are shown here.
Cc1ncsc1-c1ccc(CNC(=O)[C@@H]2C[C@@H](O)CN2C(=O)[C@@H](NC(=O)C2(C#N)CC2)C(C)(C)C)cc1
> 100 µM
Clc1cc(Br)c2c3c(c(Br)cc(Cl)c13)C(Br)=C2Br
40.3 µM
CCS(=O)(=O)Nc1cccc(Nc2c3cccc(C)c3nc3c(C)cccc23)c1OC
> 51.9 µM

Below: the item to evaluate.
Requested read-out: TGI. Entry: COc1cnc2c(c1)C(=O)c1c-2n(CCCNC(C)C)c(=O)c2cc(F)ccc12
0.328 µM

* * *

Documented log10(TGI) across a set of molecules
system: MDA-MB-231 breast; test: NCI tumour cell line growth inhibition, 48 h
Short version: log10 scale, TGI, µM.

Here is how some molecules turned out for log10(TGI).
COC(=O)/C=C/c1cn(C(C)=O)c2ccc(Br)cc12
1.47
CN1CC[C@]2(c3cccc(O)c3)CC(=O)/C(=C/c3ccc(Cl)c(Cl)c3)[C@@H]1C2
0.38
Cl/C(=C\C=Nc1ccc(I)cc1)c1ccc2ccccc2c1
1.56

Lab note: need log10(TGI) with MDA-MB-231 breast for entry CC[C@]12C=CCN3CC[C@@]4(c5cc(Br)c(OC)cc5N(C)[C@H]4[C@@](O)(C(=O)N[C@@H](Cc4ccc(O)cc4)C(=O)OC)[C@@H]1O)[C@@H]32 , please look it up.
1.49

# value lookup — system MDA-MB-231 breast, readout log10(TGI), item N#CS.N=C=S.N=C=S.[Cu+2].[NH2-].[NH2-].[NH2-].[NH2-].c1ccc2ncccc2c1
1.93

// lookup log10(TGI) | system=MDA-MB-231 breast | key= O=C(NO)c1ccc(Cn2c(=O)n(-c3ccccc3F)c(=O)c3ccccc32)cc1
0.90

* * *

test system: MCF7 breast; assay: NCI tumour cell line growth inhibition, 48 h
Measured TGI, listed per entry for reference.
Respond numerically; units are µM and should not be typed.

Cc1cc(Oc2ccc3nc(COc4ccc(CC5SC(=O)NC5=O)cc4)n(C)c3c2)cc(C)c1N (stereo not given)
98.9
C=C1C(=O)OC2CC1CCC1(C)OC1CCC(C)=CCCC2(C)O (stereo not given)
9.64

Now take the following compound into account.
Find the recorded TGI belonging to O=C(NN=C1CCCCC1)c1[nH]c2ccc(F)cc2c1-c1ccccc1 and report it.
80.4

* * *

Reported TGI values for the following compounds.
tested on: HCC-2998 colon; test: NCI tumour cell line growth inhibition, 48 h

Cn1/c(=N\N=C(\CNCCO)[C@@H](O)[C@@H]2OC(c3ccccc3)OC[C@H]2O)sc2ccccc21 (stereo not given in full)
32 µM
CCc1ccc2c(c1)N(CCO)C1=C(C(=O)OC1)C2c1cccc(Cl)c1 (stereo not given)
9.25 µM
NCCC(=O)N[C@@H](Cc1cc(O)c(O)c(SCC(NC(=O)CC[C@H](N)C(=O)O)C(=O)NCC(=O)O)c1)C(=O)O (stereo not given in full)
> 50 µM
COC(=O)c1ccc(Cl)cc1NC(=O)C1CCCCC1
> 100 µM
NC1=NCCN1CC(=O)O
> 10000 µM
O[C@@H]1C[C@H]2N3CC[C@@]2(c2cc4c(cc2C3)OCO4)[C@H]2O[C@@H]12
> 100 µM
COCn1c(C)c(C)c2c(=O)oc(N(C)C)nc21
> 100 µM
CN1CC[C@]2(c3cccc(O)c3)CC(=O)/C(=C/c3ccc(Cl)c(Cl)c3)[C@@H]1C2
2.77 µM
O=C(NCC(O)CNC(=O)C(F)(F)F)C(F)(F)F
> 100 µM

Field: next compound
Item: Cc1ccc(C(=O)OCC(C)C)cc1N=NN(C)C Test system: HCC-2998 colon Read-out: TGI Value: ?
> 100 µM

* * *

system: SK-MEL-28 melanoma; experiment: NCI tumour cell line growth inhibition, 48 h
# TGI values compiled below

Example cases with answers are listed next.
SC1CCCN(Cc2ccccc2)C1 (stereo not given)
> 100 µM
COc1ccccc1/C=C1\CCC(CCN2CCOCC2)C1=O (stereo not given)
> 100 µM
CCOC(=O)/C(C#N)=C1/C(O)=C(C(=O)OC)C(C(=O)OC)=C1C(=O)OC
> 100 µM

For the molecule Cc1nc2ccccc2c(=O)n1NC(=S)Nc1ccc(Cl)cc1[N+](=O)[O-] , what TGI is on record?
> 100 µM

Look at this molecule and give its reported TGI. Cc1ccc(-c2nc(N3CCCNCC3)c3oc(-c4ccccc4)nc3n2)cc1
3.39 µM

TGI for CC1(C)CCC(C)(C)c2c1ccc(O)c2Cc1c(O)ccc2c1C(C)(C)CCC2(C)C ?
4.93 µM

Fill blank: measured TGI of the molecule O=C(NN=C1CCCCC1)c1[nH]c2ccc(F)cc2c1-c1ccccc1 is ____.
> 100 µM

Given the entry Cc1ccc2[nH]c3c(c2c1)C1CCC(C(C)(C)C)CC1C1C(=O)N(c2ccc4c(c2)OCO4)C(=O)C31 (stereo not given) , report its measured TGI.
17.9 µM

Looking for the measured TGI of CCCCN(CCCC)CCCn1c(=O)c2c3ccccc3n(C)c2n2nnc(-c3ccccc3)c12 , can you help?
> 100 µM

So what does the record say about TGI for COC(=O)/C=C/c1cn(C(C)=O)c2ccc(Br)cc12 ?
> 100 µM

* * *

TGI values, listed per item
tested on: A549 NSCLC; assay: NCI tumour cell line growth inhibition, 48 h

COc1ccc2oc(C(=O)O)c3c2c1CCC3
> 100 µM
O=c1c2c3c(sc2nc(N/N=C/c2ccc(Br)cc2)n1Cc1ccccc1)CCCC3
> 100 µM
O=C(NCC(O)CNC(=O)C(F)(F)F)C(F)(F)F
> 100 µM
CN(C)Cc1cc(C=O)cc(CN(C)C)c1O
> 100 µM
COc1cc(/C=C/C(=O)CC(=O)/C=C/c2ccc(O)c(OC)c2)ccc1O
31.7 µM

Would you kindly look at the next entry?
May I ask what TGI has been recorded for O=C1CCCC2C3CC(CN12)C1CCCCN1C3 (stereo unspecified) ?
> 100 µM

* * *

system: UACC-62 melanoma; assay: NCI tumour cell line growth inhibition, 48 h
Observation Type: GI50

Cc1cc(Oc2ccc3nc(COc4ccc(CC5SC(=O)NC5=O)cc4)n(C)c3c2)cc(C)c1N (centres undefined)
22.5 µM
COc1ccc(-c2cc(-c3ccc(O)cc3)nc3n[nH]c(N)c23)cc1
17.2 µM
N#CS.N=C=S.N=C=S.[Cu+2].[NH2-].[NH2-].[NH2-].[NH2-].c1ccc2ncccc2c1
19.4 µM
CCCCCCCCCCCCOC1C(C(CC(=O)N2CCN(c3cccc(C(F)(F)F)c3)CC2)NS(=O)(=O)c2cc(Cl)cc(Cl)c2)OC2OC(C)(C)OC21 (centres undefined)
> 100 µM
C/C(=C(\c1ccc(OCCN2CCCCCC2)cc1)c1ccc(OC(=O)Cc2ccccc2)cc1)c1ccc(Cl)cc1
2.73 µM

Alright, here's another compound for you.
For the compound shown here, C=C1C(=O)O[C@@H]2C1C[C@@H](O)C(=C)CC/C=C(\C)CCC[C@H](C)[C@H]2OC(C)=O (some centres undefined) , give the reported GI50.
7.45 µM

* * *

test system: HCT-15 colon; experiment: NCI tumour cell line growth inhibition, 48 h
Readings of TGI for the listed compounds

Here's what some known entries look like.
CSc1nc(SC)c2ncn(C3CC(Oc4ccc(C)cc4)C(COc4ccc(C)cc4)O3)c2n1 (stereo not drawn)
> 100 µM
CC/C(=C(/c1ccc(O)cc1)c1ccc(OCCN2CCCCC2)cc1)c1ccc(OC)cc1
5.46 µM

Let us move to another entry and its TGI.
// returns reported TGI for input COc1c(C)cc2c(c1O)C1NC(C2)[C@H](O)N2C3COC(=O)[C@@]4(CS[C@@H](c5c(OC(C)=O)c(C)c6c(c53)OCO6)C12)NCCC1=C4NC2C=CC=CC12 (stereo partly drawn)
0.113 µM

* * *

system: M14 melanoma; experiment: NCI tumour cell line growth inhibition, 48 h; in the data active means GI50 below about 0.43 µM; inactive means the rest
Choose one outcome from this list and give only that: active, inactive

Recorded results for 3 compounds are shown here.
N#CS.N=C=S.N=C=S.[Cu+2].[NH2-].[NH2-].[NH2-].[NH2-].c1ccc2ncccc2c1
inactive
CCC[CH2][Sn]1([CH2]CCC)[O]C(=O)c2ccc(C)cc2[O]1
inactive
CN(C)CCCNC(=O)c1cncnc1Nc1ccc(OCc2cccc(F)c2)c(Cl)c1
inactive

Lab log entry: COc1ccc(-c2c(-c3cc(OC)c(OC)c(OC)c3)noc2N)cc1 — outcome as called in the assay?
active

Per the assay record, what outcome was assigned to O=C(NCc1ccco1)c1ccc(NC2=C(Cl)C(=O)N(Cc3ccccc3)C2=O)cc1 ?
inactive

Hi, sorry to bother you, what did the test record for COc1cc(-c2nn(-c3cccc(NC(=O)c4ccc(N5CCOCC5)c(C(F)(F)F)c4)c3)cc2-c2ccncc2)ccc1Cl ?
active

Hello, the source for this data is PubChem BioAssay (NCI), in case you need it.
